# Test system: Fibroblast
# assay.info: Multiplex assay against human fibroblast
# Assay type: toxicity, cell-based
# run.parameters: 48 h, 1 µM, compound concentration 1 uM, replicate 1
Criterion: Population Normal (%) meeting or surpassing 80%. Met: TRUE. Not met: FALSE.

> print(dat)
                                    compound  assigned.category
 1  CC(C)Oc1ccccc1C(=O)Nc1ccccc1C(=O)Nc1cccc(S(=O)(=O)C(F)(F)F)c1               TRUE
 2  C[C@]12CC[C@@H]3c4ccc(O)cc4CC[C@H]3[C@@H]1CC[C@@H]2O              FALSE
 3  CC(C)OC(=O)N1CCC(Oc2ncnc3c2cnn3-c2ccc(S(C)(=O)=O)cc2F)CC1              FALSE
 4  COc1ccccc1CN[C@H]1C2CCN(CC2)[C@H]1C(c1ccccc1)c1ccccc1               TRUE
 5  Cc1c[nH]c2nccc(Oc3c(F)cc(Nc4cc(Cl)nc(N)n4)cc3F)c12               TRUE
 6  CN1CCN(Cc2ccc(Nc3ncc(Cl)c(Nc4ccccc4S(=O)(=O)N(C)C)n3)cc2)CC1               TRUE
 7  O=C(c1cc2c(cc1F)OC(c1ccc(F)cc1)(c1ccc(Cl)cc1Cl)O2)N1CCOCC1 (stereo unspecified)               TRUE
 8  Cc1ccccc1C(c1ccccc1C)N1C2CCC1CC(O)(c1ccccc1)C2 (stereo unspecified)               TRUE
 9  COc1ccc(-c2ccc3ncc4c(c3c2)n(-c2ccc(N3CCNCC3)c(C(F)(F)F)c2)c(=O)n4C)cn1.O=C(O)/C=C\C(=O)O              FALSE
10  CC(C)c1noc(N2CCC(COc3ccc(-c4ccc(S(C)(=O)=O)cc4)nc3)CC2)n1               TRUE
11  COC(=O)C1=C(C)NC(C)=C(C(=O)OCCCN2CCC(c3ccccc3)(c3ccccc3)CC2)[C@H]1c1cccc([N+](=O)[O-])c1               TRUE
12  Cc1ccc2c(c1)c1c(n2CCc2ccc(C)nc2)CCN(C)C1 [LATREPIRDINE]              FALSE
13  O=c1cc(N2CCOCC2)oc2c(-c3cccc4c3sc3ccccc34)cccc12               TRUE
14  COc1cc(Nc2nccc(-c3cnn4nc(OC)ccc34)n2)cc(C(F)(F)F)c1               TRUE
15  CC1=C(C(=O)Nc2cc3cn[nH]c3cc2F)C(c2ccc(C(F)(F)F)cc2)CC(=O)N1 (stereo unspecified)               TRUE

###

# Tested on: Fibroblast
# assay.info: Multiplex assay against human fibroblast
# Assay type: toxicity, cell-based
# run.parameters: 48 h, 10 µM, compound concentration 10 uM, replicate 1
property.name: Population Membrane Permeable-Phenotype (%)

> print(dat)
                                   compound  measured.on  unit.text  quantitative.readout
1  Cc1c[nH]c2nccc(Oc3c(F)cc(Nc4cc(Cl)nc(N)n4)cc3F)c12 [BAY-549]   Fibroblast          %                    16
2  CCc1ccc(OCc2ccccc2C(=O)Nc2ccc3nc(C)cc(N)c3c2)cc1.Cl   Fibroblast          %                     4
3  Cc1ccc2c(c1)c1c(n2CCc2ccc(C)nc2)CCN(C)C1 [LATREPIRDINE]   Fibroblast          %                     7
4  CNC(=O)Nc1ccc(-c2nc(N3CC4CCC(C3)O4)c3cnn(C4CCC5(CC4)OCCO5)c3n2)cc1   Fibroblast          %                    19
5  CC(C)c1noc(N2CCC(COc3ccc(-c4ccc(S(C)(=O)=O)cc4)nc3)CC2)n1 [GSK-1292263]   Fibroblast          %                    29

Entry source: ChEMBL document CHEMBL4689842
